Biological target: SARS-CoV-2 wild type spike protein (on reporter virus particles) (SARS-CoV-2, UniProt P0DTC2 14-1273)
Experiment: cell-based or functional assay
Below, each entry is listed with its recorded PsV neutralization IC50.
Recorded metric: PsV neutralization IC50 (µg/mL)

Binder: A-9 (antibody, V domains shown) VH: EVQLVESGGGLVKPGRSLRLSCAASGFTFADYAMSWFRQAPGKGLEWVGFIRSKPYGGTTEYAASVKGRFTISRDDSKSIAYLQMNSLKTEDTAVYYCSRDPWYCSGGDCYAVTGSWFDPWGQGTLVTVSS VL: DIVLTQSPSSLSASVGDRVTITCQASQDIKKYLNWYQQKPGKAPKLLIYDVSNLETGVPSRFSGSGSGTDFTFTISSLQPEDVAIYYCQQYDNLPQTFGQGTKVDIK
Unit abbreviation: µg/mL
Value reported: 0.011

Binder: A-16 (antibody, V domains shown) VH: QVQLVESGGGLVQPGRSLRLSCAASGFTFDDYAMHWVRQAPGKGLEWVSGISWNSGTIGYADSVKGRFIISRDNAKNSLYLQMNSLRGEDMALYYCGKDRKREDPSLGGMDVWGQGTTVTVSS VL: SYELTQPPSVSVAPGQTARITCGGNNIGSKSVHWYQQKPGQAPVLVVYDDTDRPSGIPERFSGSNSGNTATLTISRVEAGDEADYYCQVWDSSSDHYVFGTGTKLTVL
Unit abbreviation: µg/mL
Value reported: 0.057

Binder: A-6 (antibody, V domains shown) VH: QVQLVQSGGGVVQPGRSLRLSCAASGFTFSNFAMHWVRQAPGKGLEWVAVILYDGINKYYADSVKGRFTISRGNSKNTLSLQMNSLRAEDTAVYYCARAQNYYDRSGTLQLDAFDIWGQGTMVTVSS VL: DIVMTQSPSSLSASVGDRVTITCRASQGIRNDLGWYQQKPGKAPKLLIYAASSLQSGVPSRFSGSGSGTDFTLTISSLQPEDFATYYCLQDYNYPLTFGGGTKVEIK
Unit abbreviation: µg/mL
Value reported: 0.173

Binder: A-18 (antibody, V domains shown) VH: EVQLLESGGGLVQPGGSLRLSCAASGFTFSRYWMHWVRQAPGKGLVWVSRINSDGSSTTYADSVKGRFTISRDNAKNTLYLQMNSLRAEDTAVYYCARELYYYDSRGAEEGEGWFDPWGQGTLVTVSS VL: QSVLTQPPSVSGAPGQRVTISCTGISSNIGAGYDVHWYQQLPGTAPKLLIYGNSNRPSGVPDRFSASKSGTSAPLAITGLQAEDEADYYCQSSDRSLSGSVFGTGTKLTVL
Unit abbreviation: µg/mL
Value reported: 0.303
